Recorded IC50 by entry
biological target: Nitric oxide synthase 3 (Homo sapiens); assay: Inhibition of human endothelial Nitric Oxide Synthase

Consider the following illustrative entries.
1. CC(=N)NCCS(=O)(=O)C[C@@H](N)C(=O)O; > 1000 µM
2. CC(=N)NCCSC[C@H](N)C(=O)O; > 100 µM
3. CC(=N)NCCCCCC(N)C(=O)O (centres undefined); > 100 µM
4. CC(=N)NCCS(=O)(=O)CCC(N)C(=O)O (centres undefined); > 100 µM

[Q] Recorded IC50 for CC(=N)NCC[S+]([O-])C[C@@H](N)C(=O)O (some centres undefined) , please?
[A] 155 µM

[Q] Would you mind telling me what IC50 value was observed for CC(=N)NCCSCC[C@H](N)C(=O)O ?
[A] 466 µM

[Q] Returns the measured IC50 for the input compound. Input: CC(=N)NCC[S+]([O-])CCC(N)C(=O)O (centres undefined)
[A] > 100 µM

###

target: Nitric oxide synthase, inducible (Homo sapiens)
Sequence (P35228 whole entry): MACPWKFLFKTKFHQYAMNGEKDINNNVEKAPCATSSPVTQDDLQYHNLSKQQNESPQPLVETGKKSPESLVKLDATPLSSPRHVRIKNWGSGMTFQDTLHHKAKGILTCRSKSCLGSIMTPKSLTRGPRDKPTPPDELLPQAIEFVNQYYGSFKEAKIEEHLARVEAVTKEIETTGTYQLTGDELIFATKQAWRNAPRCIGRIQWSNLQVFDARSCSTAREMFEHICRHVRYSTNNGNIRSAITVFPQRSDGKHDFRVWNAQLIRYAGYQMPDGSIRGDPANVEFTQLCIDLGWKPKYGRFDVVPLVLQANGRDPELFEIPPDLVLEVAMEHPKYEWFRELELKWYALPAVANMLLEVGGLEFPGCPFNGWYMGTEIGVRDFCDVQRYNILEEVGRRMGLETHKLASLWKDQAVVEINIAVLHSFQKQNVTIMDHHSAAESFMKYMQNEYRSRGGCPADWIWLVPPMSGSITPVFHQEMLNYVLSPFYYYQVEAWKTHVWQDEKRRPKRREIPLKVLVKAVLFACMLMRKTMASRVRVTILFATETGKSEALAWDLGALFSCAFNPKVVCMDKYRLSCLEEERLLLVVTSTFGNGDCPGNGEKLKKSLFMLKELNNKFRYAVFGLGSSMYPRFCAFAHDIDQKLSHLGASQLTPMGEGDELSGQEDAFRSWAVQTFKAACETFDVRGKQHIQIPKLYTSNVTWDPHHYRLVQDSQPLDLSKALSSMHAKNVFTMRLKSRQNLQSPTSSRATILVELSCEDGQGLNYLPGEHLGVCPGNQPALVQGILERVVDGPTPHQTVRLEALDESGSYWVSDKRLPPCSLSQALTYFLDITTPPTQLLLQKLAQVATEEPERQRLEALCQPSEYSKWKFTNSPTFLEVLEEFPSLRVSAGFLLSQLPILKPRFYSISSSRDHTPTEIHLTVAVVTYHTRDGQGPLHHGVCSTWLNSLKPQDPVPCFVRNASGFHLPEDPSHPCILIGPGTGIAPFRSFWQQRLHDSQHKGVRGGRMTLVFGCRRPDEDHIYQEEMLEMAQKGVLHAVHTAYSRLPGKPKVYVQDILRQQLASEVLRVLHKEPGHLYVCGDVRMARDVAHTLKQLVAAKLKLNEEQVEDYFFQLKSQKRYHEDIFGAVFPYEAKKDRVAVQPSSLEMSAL
Assign labels as follows, please: Condition met for IC50 below 5 µM; Condition not met for IC50 equal to or exceeding 5 µM.

Here are 3 molecules together with their reported answers.
1. CC(=N)NCCSCC[C@H](N)C(=O)O; Condition met
2. CC(=N)NCCSC[C@H](N)C(=O)O; Condition not met
3. CC(=N)NCC[S+]([O-])CCC(N)C(=O)O (stereo not drawn); Condition not met

Kindly consider the entry below.
[Q] Identify whether the molecule CC(=N)NCCSCC[C@@H](N)C(=O)O records IC50 below 5 µM.
[A] Condition not met

###

biological target: Nitric oxide synthase 3 (Homo sapiens); assay: Concentration required for inhibition of endothelial Nitric Oxide Synthase in human
readout.label: IC50 (µM)
Field: numeric (µM). Do not append units.

[Q] Param readout= IC50; system= Nitric oxide synthase 3 (Homo sapiens); entry= CC(=N)NCCSC[C@@H](N)C(=O)O ; returns value.
[A] 40

###

molecular target: Nitric oxide synthase (inducible and endothelial) (Homo sapiens) (UniProt P35228+P29474); assay: Ratio of Endothelial Nitric Oxide Synthase to Inducible nitric oxide synthase; assay type: protein assay
Quick rule: Ratio of at least 20 means Satisfied, below that means Not satisfied.

1. CC(=N)NCCCC[C@@H](N)C(=O)O; Satisfied
2. CC(=N)NCCS(=O)(=O)C[C@@H](N)C(=O)O; Satisfied
3. CC(=N)NCCOCCC(N)C(=O)O (stereo not given); Satisfied
4. CC(=N)NCCOC[C@H](N)C(=O)O; Not satisfied
5. CC(=N)NCCSCC[C@H](N)C(=O)O [GW-274150]; Satisfied
6. CC(=N)NCCSC[C@@H](N)C(=O)O; Satisfied

[Q] Is the recorded value of Ratio equal to or greater than 20 for this compound? CC(=N)NCC[S+]([O-])C[C@@H](N)C(=O)O (stereo not given in full)
[A] Not satisfied

###

biological target: Nitric oxide synthase 1 (Homo sapiens); assay: Inhibition of human neuronal Nitric Oxide Synthase
Sequence (P29475 whole entry): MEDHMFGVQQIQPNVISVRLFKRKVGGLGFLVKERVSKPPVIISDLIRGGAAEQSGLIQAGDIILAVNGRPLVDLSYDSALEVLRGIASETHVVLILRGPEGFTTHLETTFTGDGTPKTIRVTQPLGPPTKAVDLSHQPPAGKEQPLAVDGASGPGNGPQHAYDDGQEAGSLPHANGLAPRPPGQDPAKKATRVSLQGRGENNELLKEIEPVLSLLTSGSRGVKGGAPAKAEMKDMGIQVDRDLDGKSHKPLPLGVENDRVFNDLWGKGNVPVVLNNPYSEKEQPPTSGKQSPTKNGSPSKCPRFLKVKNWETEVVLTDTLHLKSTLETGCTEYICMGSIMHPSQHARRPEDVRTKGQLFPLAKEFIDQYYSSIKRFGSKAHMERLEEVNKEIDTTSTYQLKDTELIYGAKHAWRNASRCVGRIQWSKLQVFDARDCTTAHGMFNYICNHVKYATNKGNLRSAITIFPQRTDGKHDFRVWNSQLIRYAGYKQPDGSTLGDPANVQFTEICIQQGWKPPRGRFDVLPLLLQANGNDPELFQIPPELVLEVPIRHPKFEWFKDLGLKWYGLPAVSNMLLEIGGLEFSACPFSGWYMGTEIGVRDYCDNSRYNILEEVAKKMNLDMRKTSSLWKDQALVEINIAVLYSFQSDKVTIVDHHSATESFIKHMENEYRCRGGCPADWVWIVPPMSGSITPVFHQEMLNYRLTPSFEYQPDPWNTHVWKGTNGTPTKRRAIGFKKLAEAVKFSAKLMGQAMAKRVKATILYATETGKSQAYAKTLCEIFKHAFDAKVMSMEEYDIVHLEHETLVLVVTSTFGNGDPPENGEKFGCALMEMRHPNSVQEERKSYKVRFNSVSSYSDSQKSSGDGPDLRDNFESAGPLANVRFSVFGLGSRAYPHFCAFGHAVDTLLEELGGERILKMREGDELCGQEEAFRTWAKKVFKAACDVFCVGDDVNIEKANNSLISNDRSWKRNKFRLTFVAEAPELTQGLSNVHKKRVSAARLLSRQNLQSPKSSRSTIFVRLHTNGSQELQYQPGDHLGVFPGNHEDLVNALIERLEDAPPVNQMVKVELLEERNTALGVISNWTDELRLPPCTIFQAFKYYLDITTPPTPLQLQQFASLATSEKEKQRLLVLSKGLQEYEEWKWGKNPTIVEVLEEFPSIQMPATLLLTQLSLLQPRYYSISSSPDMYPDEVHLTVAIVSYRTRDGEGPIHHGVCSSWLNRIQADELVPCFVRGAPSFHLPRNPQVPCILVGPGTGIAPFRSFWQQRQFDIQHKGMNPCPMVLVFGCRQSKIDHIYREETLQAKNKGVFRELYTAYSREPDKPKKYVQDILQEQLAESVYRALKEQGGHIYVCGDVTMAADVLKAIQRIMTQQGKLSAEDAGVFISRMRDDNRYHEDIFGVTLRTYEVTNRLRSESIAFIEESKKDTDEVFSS
readout.label: pIC50
# log scale: pIC50 equals minus log10 of the concentration in mol/L

Past entries and their recorded results:
1) CC(=N)NCCOC[C@H](N)C(=O)O; 4.94
2) CC(=N)NCCS(=O)(=O)C[C@@H](N)C(=O)O; 3.20
3) CC(=N)NCCSC[C@H](N)C(=O)O; 4.28
4) CC(=N)NCCSC[C@@H](N)C(=O)O; 4.88
5) CC(=N)NCCOCCC(N)C(=O)O (centres undefined); 5.22
6) CC(=N)NCCCC[C@@H](N)C(=O)O; 4.43
7) CC(=N)NCCSCC[C@H](N)C(=O)O; 3.84

Now for another entry.
[Q] Which pIC50 is reported for this compound? CC(=N)NCC[S+]([O-])C[C@@H](N)C(=O)O (some centres undefined)
[A] 4.17

###

Ratio listing for selected compounds.
target: Nitric oxide sythases; iNOS & nNOS (Homo sapiens) (UniProt P29475+P35228); experiment: Ratio of binding to Neuronal nitric oxide synthase and Inducible nitric oxide synthase; format: protein assay
Sequence (P29475 whole entry, looked up, one chain of several): as the sequence (P29475 whole entry) above
Reply with just the number.

1. CC(=N)NCCCC[C@@H](N)C(=O)O; 23
2. CC(=N)NCCSCC[C@H](N)C(=O)O; 104
3. CC(=N)NCCOC[C@H](N)C(=O)O; 10
4. CC(=N)NCCSC[C@H](N)C(=O)O; 10
5. CC(=N)NCCOCCC(N)C(=O)O (stereo not given); 5
6. CC(=N)NCC[S+]([O-])C[C@@H](N)C(=O)O (stereo not given in full); 9
7. CC(=N)NCCS(=O)(=O)C[C@@H](N)C(=O)O; 78

Next compound, please.
[Q] Param item = CC(=N)NCCSC[C@@H](N)C(=O)O ; retrieve measured Ratio.
[A] 19

###

In this section, each of the compounds is paired with its reported IC50.
target: Nitric oxide synthase 3 (Homo sapiens, UniProt P29474); assay: Inhibition of human endothelial Nitric Oxide Synthase
Sequence (P29474 whole entry): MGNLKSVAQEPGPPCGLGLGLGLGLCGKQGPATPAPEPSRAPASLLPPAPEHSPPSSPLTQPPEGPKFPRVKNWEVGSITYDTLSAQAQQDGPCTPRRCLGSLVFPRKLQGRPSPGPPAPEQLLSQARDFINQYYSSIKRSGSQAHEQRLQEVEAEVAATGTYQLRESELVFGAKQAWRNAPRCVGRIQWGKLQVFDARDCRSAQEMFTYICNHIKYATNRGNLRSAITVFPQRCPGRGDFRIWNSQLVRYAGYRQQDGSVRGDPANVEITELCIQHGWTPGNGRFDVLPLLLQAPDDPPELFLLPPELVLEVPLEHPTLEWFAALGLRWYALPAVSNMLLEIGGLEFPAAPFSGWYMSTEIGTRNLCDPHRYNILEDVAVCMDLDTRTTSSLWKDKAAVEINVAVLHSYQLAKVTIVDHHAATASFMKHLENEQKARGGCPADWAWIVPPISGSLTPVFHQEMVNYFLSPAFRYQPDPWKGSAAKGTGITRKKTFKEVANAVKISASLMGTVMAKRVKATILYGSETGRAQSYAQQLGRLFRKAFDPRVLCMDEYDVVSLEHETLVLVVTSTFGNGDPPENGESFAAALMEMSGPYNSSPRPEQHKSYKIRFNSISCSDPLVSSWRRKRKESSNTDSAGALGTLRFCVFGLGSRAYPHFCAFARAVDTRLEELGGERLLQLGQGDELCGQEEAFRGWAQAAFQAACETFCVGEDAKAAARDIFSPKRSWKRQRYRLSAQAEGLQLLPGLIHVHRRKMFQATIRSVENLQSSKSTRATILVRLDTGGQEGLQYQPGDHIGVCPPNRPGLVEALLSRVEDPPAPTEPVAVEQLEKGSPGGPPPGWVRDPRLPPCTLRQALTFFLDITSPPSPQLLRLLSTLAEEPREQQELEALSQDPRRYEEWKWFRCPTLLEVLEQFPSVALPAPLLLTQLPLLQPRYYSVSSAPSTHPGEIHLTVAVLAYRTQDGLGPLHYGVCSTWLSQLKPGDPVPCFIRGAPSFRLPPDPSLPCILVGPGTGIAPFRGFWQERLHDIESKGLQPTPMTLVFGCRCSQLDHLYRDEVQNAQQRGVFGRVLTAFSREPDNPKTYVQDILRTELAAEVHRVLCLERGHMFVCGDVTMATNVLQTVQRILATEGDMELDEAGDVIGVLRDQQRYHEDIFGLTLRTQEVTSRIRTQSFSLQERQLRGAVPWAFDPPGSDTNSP

# count of solved cases: 5
1. CC(=N)NCCSCC[C@@H](N)C(=O)O; > 100 µM
2. CC(=N)NCCCSC[C@H](N)C(=O)O; > 100 µM
3. CC(=N)NCCCS(=O)(=O)C[C@H](N)C(=O)O; > 100 µM
4. CC(=N)NCCCC[C@@H](N)C(=O)O; 78 µM
5. CC(=N)NCCCOC[C@H](N)C(=O)O; > 100 µM

[Q] Using the record for CC(=N)NCCOC[C@H](N)C(=O)O , report its IC50.
[A] 13 µM

[Q] What value of measured IC50 is listed for CC(=N)NCCOCCC(N)C(=O)O (configuration not stated) ?
[A] 72 µM

###

Below are molecules with their pIC50 as measured on Nitric oxide synthase, inducible (Homo sapiens).
The meaning of pIC50 here: minus log10 of the concentration in molar units.

1. CC(=N)NCCS(=O)(=O)C[C@@H](N)C(=O)O; 5.10
2. CC(=N)NCCSC[C@@H](N)C(=O)O; 6.15

Kindly consider the entry below.
[Q] pIC50 of CC(=N)NCCOC[C@H](N)C(=O)O on Nitric oxide synthase, inducible (Homo sapiens)?
[A] 5.92

###

target: Nitric oxide synthase (inducible and endothelial) (Homo sapiens) (UniProt P35228+P29474); experiment: Ratio of Endothelial Nitric Oxide Synthase to Inducible nitric oxide synthase; type: protein assay
readout.label: Ratio

Here is how some molecules turned out for Ratio.
1) CC(=N)NCCCCCC(N)C(=O)O (stereo not drawn); > 5
2) CC(=N)NCCSC[C@H](N)C(=O)O; > 18

[Q] Which value of Ratio has been reported for CC(=N)NCCSCC[C@@H](N)C(=O)O in the records?
[A] > 17
